// reported EC50 per item
Target Entity: NL20 human bronchial epithelial cells expressing human Z-AAT (Homo sapiens, UniProt P01009, E366K)
Sequence (P01009 25-418 E366K): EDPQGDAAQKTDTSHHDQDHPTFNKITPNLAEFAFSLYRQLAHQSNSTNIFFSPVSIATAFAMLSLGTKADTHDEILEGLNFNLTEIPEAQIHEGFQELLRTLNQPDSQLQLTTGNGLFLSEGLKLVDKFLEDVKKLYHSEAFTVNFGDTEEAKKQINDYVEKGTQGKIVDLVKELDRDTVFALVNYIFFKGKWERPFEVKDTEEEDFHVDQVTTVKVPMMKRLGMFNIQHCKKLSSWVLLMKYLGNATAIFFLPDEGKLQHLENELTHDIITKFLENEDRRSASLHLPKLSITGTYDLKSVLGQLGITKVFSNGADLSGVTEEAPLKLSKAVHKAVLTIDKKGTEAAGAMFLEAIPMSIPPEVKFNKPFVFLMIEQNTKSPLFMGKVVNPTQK
Assay Comment: AAT Function Assay (MSD Assay NL20-SI Cell Line)
Test Conditions: functionally active AAT (AAT-hNE complex, MSD) from NL20 cells expressing human Z-AAT; read-out: NL20 Functional EC50
Text: Example 1: AAT Function Assay (MSD Assay NL20-SI Cell Line) Alpha-1 antitrypsin (AAT) is a SERPIN (serine protease inhibitor) that inactivates enzymes by binding to them covalently. This assay measured the amount of functionally active AAT in a sample in the presence of the disclosed compounds 1-262 by determining the ability of AAT to form an irreversible complex with human neutrophil Elastase (hNE). […]

Prompt line: Query (molecule): CC(C)c1nc(-c2ccc(C(=O)O)c(F)c2)c2cc3[nH]ncc3cc2c1-c1ccc(F)cc1 ; field requested: EC50
Response line: < 1.16 µM

Prompt line: Query (molecule): CC(C)c1nc(Oc2ccc(C(=O)O)cc2F)c2cc3[nH]ncc3cc2c1-c1ccc(F)cc1 ; field requested: EC50
Response line: < 1.16 µM

Prompt line: Query (molecule): CC(C)c1nc(OC2CC3(CCN(CC(=O)O)C3)C2)c2cc3[nH]ncc3cc2c1-c1ccc(F)cc1 (single isomer, unassigned) [Compound 102] ; field requested: EC50
Response line: > 3 µM

Prompt line: Query (molecule): O=C(O)[C@H]1C[C@H](Oc2nc(C3(O)CC3)c(-c3ccc(F)c(F)c3)c3cc4cn[nH]c4cc23)C1 ; field requested: EC50
Response line: 1.16 to 3 µM

Prompt line: Query (molecule): Cc1cc(-c2c(C3CCOCC3)nc(OC3CN(C(=O)C4(O)CC4)C3)c3cc4[nH]ncc4cc23)ccn1 ; field requested: EC50
Response line: > 3 µM

Prompt line: Query (molecule): O=P(O)(O)c1ccc(Oc2nc(C3CCOCC3)c(-c3ccc(F)cc3)c3cc4cn[nH]c4cc23)cc1 ; field requested: EC50
Response line: > 3 µM

Prompt line: Query (molecule): O=C(O)[C@H]1C[C@H](Oc2nc(C3CCOCC3)c(-c3ccc(Cl)cc3)c3cc4cn[nH]c4cc23)C1 ; field requested: EC50
Response line: < 1.16 µM

Prompt line: Query (molecule): CP(C)(=O)c1ccc(Oc2nc(C3CCOCC3)c(-c3ccc(F)cc3)c3cc4cn[nH]c4cc23)cc1 ; field requested: EC50
Response line: < 1.16 µM

Prompt line: Query (molecule): CC(C)c1c(NC2CC(C(=O)O)C2)nc2cc3[nH]ncc3cc2c1-c1ccc(F)cc1 (stereo not drawn) ; field requested: EC50
Response line: 1.16 to 3 µM

Prompt line: Query (molecule): Cc1cc(-c2c(C3CCOCC3)nc(OC(CO)CNS(=O)(=O)CCO)c3cc4[nH]ncc4cc23)ccn1 (stereo not drawn) ; field requested: EC50
Response line: > 3 µM

Prompt line: Query (molecule): CCS(=O)(=O)c1c(-c2ccc(C(=O)O)cc2OC)nc2cc3[nH]ncc3cc2c1-c1ccc(F)cc1 ; field requested: EC50
Response line: > 3 µM

Prompt line: Query (molecule): O=C(O)c1ccc(Oc2nc(C3(O)CC3)c(-c3ccc(F)cc3)c3cc4cn[nH]c4cc23)cc1 ; field requested: EC50
Response line: 1.16 to 3 µM

Prompt line: Query (molecule): Cc1cc(-c2c(C3CCOCC3)nc(Oc3ccc(N4CC(C(=O)O)CC4=O)cc3)c3cc4[nH]ncc4cc23)ccn1 (stereo not drawn) ; field requested: EC50
Response line: > 3 µM

Prompt line: Query (molecule): Cc1cc(-c2c(C(C)C)c(-c3ccc(C(=O)O)cc3)nc3cc4[nH]ncc4cc23)ccc1F ; field requested: EC50
Response line: < 1.16 µM

Prompt line: Query (molecule): O=C(N1CC(Oc2nc(C3CCOCC3)c(-c3ccc(F)cc3)c3cc4cn[nH]c4cc23)C1)C1(O)CC1 ; field requested: EC50
Response line: > 3 µM
